Target: T1, EsCas13d, nuclease-dead (Eubacterium siraeum, UniProt B0MS50, R295A;H300A;R849A;H854A)
T1 sequence: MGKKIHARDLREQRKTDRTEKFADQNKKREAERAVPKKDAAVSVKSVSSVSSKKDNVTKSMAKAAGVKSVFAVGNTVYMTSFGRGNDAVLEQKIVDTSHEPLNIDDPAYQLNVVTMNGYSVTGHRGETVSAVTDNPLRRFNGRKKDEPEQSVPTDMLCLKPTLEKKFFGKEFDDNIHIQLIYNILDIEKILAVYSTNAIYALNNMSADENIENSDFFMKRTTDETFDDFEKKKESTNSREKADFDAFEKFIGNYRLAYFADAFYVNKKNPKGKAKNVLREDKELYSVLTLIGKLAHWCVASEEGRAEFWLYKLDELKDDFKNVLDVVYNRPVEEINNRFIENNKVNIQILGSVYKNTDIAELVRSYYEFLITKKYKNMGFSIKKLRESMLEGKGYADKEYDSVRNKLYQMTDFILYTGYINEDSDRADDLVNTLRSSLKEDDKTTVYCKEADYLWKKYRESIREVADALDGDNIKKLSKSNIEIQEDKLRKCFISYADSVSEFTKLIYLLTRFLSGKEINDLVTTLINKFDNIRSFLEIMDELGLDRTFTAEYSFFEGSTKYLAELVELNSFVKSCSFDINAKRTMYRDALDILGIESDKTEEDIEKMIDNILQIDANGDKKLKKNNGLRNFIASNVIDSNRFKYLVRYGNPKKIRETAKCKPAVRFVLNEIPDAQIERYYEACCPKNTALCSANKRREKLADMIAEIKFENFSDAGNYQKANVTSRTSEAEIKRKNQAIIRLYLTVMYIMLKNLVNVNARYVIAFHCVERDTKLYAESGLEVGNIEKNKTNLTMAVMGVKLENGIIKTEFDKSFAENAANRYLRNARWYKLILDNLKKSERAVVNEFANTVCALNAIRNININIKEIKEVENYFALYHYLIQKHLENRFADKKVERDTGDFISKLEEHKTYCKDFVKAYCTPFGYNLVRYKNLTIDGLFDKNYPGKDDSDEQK
Test: crRNA (strand 1, pre-loaded); Mg2+; 40 mM Tris-HCl pH 7.5, 150 mM NaCl, 6 mM MgCl2, 1 mM DTT, 0.1% Tween-20, 0.2 mg/ml BSA; 25 C; 10 min per concentration, then washed
Conditions: tags: His6-TwinStrep-SUMO cleaved; N-terminal SNAP kept (SNAP-Surface 488); label: 3' end held by stalled T7 RNA polymerase
// reported pKd per item
Value format note: pKd is -log10 of concentration (mol/L); just state the number.

binder	pKd
target 1 insC 3' of 22,insA 3' of 7 (mixed) RNA 1: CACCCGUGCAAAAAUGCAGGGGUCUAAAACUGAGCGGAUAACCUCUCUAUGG RNA 2: GGGAAUGGAUCCACAUCUACGAAUUCGUACCCAUAGAGAGGUUAUCACGCUCACCGAGAUCGGAAGAGCACACGU	7.75

Look up and state reported pKd for target 2 MT 5'PFS CUG 3'PFS ACA (mixed) RNA 1: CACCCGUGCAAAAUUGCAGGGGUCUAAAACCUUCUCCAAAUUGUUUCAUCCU RNA 2: GGGAAUGGAUCCACAUCUACGAAUUCCUGAGGAUGAAACAAUUUGGAGAAGACAAGAUCGGAAGAGCACACGU
8.41
